molecular target: bovine thrombin (Bos taurus, UniProt P00735); construct: 25 μl of bovine thrombin solution (0.21 mg/ml of thrombostat powder); purchased thrombostat powder; test: Thrombin time in buffer (fibrinogen instead of plasma); format: biochemical; conditions: Buffer (pH 7.5)
Counter-ions that a name gives are not always drawn. Square brackets hold non-standard residues; d marks the D form. Peptide text beside a SMILES is read from it. * marks the point of attachment. dNMePhg = CN[C@@H](C(=O)O)c1ccccc1; dChg = N[C@@H](C(=O)O)C1CCCCC1; dPhg = N[C@@H](C(=O)O)c1ccccc1; Boc = CC(C)(C)OC(=O)*
assay.readout: Thrombin Time: concentration required to prolong coagulation by 2fold (ng/mL)

Answered cases to consult:
CC(C)(C)OC(=O)N[C@@H](C(=O)N1CCC[C@H]1C(=O)N[C@H](C=O)CCCNC(=N)N)c1ccccc1 [Boc-D-phenylglycyl, diacetate salt] (Boc-[dPhg]-Pro-Arg-aldehyde) ... 118
CC(C)(C)OC(=O)N[C@@H](C(=O)N1CCC[C@H]1C(=O)N[C@H](C=O)CCCNC(=N)N)C1CCCCC1 [Boc-D-cyclohexylglycyl] (Boc-[dChg]-Pro-Arg-aldehyde) ... 60
CC(=O)O.CC(=O)O.CC(C)(C)OC(=O)N[C@@H](C(=O)N1CCC[C@H]1C(=O)N[C@H](C=O)CCCNC(=N)N)c1ccc2ccccc2c1 ... 142

1. COc1ccc2cc([C@@H](NC(=O)OC(C)(C)C)C(=O)N3CCC[C@H]3C(=O)N[C@H](C=O)CCCNC(=N)N)ccc2c1
2. CN[C@@H](C(=O)N1CCC[C@H]1C(=O)N[C@H](C=O)CCCNC(=N)N)c1ccccc1 [N^α -Methyl-D-phenylglycyl (sulfate)] (H-[dNMePhg]-Pro-Arg-aldehyde)
Task: Return label of the item with the larger Thrombin Time: concentration required to prolong coagulation by 2fold. Candidates: 1 , 2 . Your answer should be the label attached to the chosen record.
Output: 1

---

target: bovine thrombin (Bos taurus); construct: 25 μl of bovine thrombin solution (0.21 mg/ml of thrombostat powder); purchased thrombostat powder; test: Plasma coagulation assay: thrombin time; assay type: biochemical
Square brackets hold non-standard residues; d marks the D form. Peptide text beside a SMILES is read from it. * marks the point of attachment. dNMePhg = CN[C@@H](C(=O)O)c1ccccc1; dHpg = N[C@@H](C(=O)O)c1ccc(O)cc1; dChg = N[C@@H](C(=O)O)C1CCCCC1; dPhg = N[C@@H](C(=O)O)c1ccccc1; Boc = CC(C)(C)OC(=O)*
assay.readout: Thrombin Time: concentration required to prolong coagulation by 2fold (ng/mL)

Answered cases to consult:
COc1ccc([C@@H](NC(C)=O)C(=O)N2CCC[C@H]2C(=O)N[C@H](C=O)CCCNC(=N)N)cc1 ... 460
CN[C@@H](C(=O)N1CCC[C@H]1C(=O)N[C@H](C=O)CCCNC(=N)N)c1ccccc1 [N^α -Methyl-D-phenylglycyl (sulfate)] (H-[dNMePhg]-Pro-Arg-aldehyde) ... 92
CC[C@@H](C(=O)N1CCC[C@H]1C(=O)N[C@H](C=O)CCCNC(=N)N)c1ccccc1 [(R)-α-Ethylphenylacetyl] ... 115
COc1ccc2cc([C@@H](NC(=O)OC(C)(C)C)C(=O)N3CCC[C@H]3C(=O)N[C@H](C=O)CCCNC(=N)N)ccc2c1 ... 460

a. CC(C)(C)OC(=O)NC(C(=O)N1CCC[C@H]1C(=O)N[C@H](C=O)CCCNC(=N)N)c1cccc2ccccc12 (mixture of isomers)
b. COc1ccc([C@@H](NC(=O)OC(C)(C)C)C(=O)N2CCC[C@H]2C(=O)N[C@H](C=O)CCCNC(=N)N)cc1
Task: Return label of the item with the larger Thrombin Time: concentration required to prolong coagulation by 2fold. Candidates: a , b . Your answer should be the label attached to the chosen record.
Output: a

I. CC(=O)O.CC(=O)O.CC(C)(C)OC(=O)N[C@@H](C(=O)N1CCC[C@H]1C(=O)N[C@H](C=O)CCCNC(=N)N)c1ccc2ccccc2c1
II. CC(C)(C)OC(=O)N[C@@H](C(=O)N1CCC[C@H]1C(=O)N[C@H](C=O)CCCNC(=N)N)C1CCCCC1 [Boc-D-cyclohexylglycyl] (Boc-[dChg]-Pro-Arg-aldehyde)
Task: Return label of the item with the larger Thrombin Time: concentration required to prolong coagulation by 2fold. Candidates: I , II . Your answer should be the label attached to the chosen record.
Output: I

1. N=C(N)NCCC[C@@H](C=O)NC(=O)[C@@H]1CCCN1C(=O)[C@H](N)c1ccccc1 [D-Phenylglycyl] (H-[dPhg]-Pro-Arg-aldehyde)
2. CC(=O)O.CC(=O)O.CC(C)(C)OC(=O)N[C@@H](C(=O)N1CCC[C@H]1C(=O)N[C@H](C=O)CCCNC(=N)N)c1ccc(O)cc1 [Boc-D-(4-hydroxy)phenylglycyl] (Boc-[dHpg]-Pro-Arg-aldehyde)
Task: Return label of the item with the larger Thrombin Time: concentration required to prolong coagulation by 2fold. Candidates: 1 , 2 . Your answer should be the label attached to the chosen record.
Output: 2

---

target: bovine thrombin (Bos taurus, UniProt P00735); construct: 25 μl of bovine thrombin solution (0.21 mg/ml of thrombostat powder); purchased thrombostat powder; experiment: Inhibition of thrombin amidase activity (chromogenic substrate), bovine thrombin; assay type: biochemical; conditions: apparent equilibrium constant inhibitor-thrombin, mean over a range of concentrations
Thrombin Amidase Kass × 10^6: recorded values

Answered cases to consult:
CC[C@@H](C(=O)N1CCC[C@H]1C(=O)N[C@H](C=O)CCCNC(=N)N)c1ccccc1 [(R)-α-Ethylphenylacetyl] ... 7 × 10^6 1/mole
Cl.N=C(N)NCCC[C@@H](C=O)NC(=O)[C@@H]1CCCN1C(=O)[C@H]1Cc2ccccc2C(=O)N1 ... 6 × 10^6 1/mole
N=C(N)NCCC[C@@H](C=O)NC(=O)[C@@H]1CCCN1C(=O)[C@@H]1NCCc2ccccc21.O=S(=O)(O)O ... 113 × 10^6 1/mole
COc1ccc2cc([C@@H](NC(=O)OC(C)(C)C)C(=O)N3CCC[C@H]3C(=O)N[C@H](C=O)CCCNC(=N)N)ccc2c1 ... 6 × 10^6 1/mole
CC(C)(C)OC(=O)NC(C(=O)N1CCCC1C(=O)NC(C=O)CCCN=C(N)N)c1ccc(F)cc1 (stereo not shown) ... 44 × 10^6 1/mole

Now let's try a different one.
Task: Give reported Thrombin Amidase Kass × 10^6 for `COc1ccc([C@@H](NC(C)=O)C(=O)N2CCC[C@H]2C(=O)N[C@H](C=O)CCCNC(=N)N)cc1` (bovine thrombin (Bos taurus, UniProt P00735))
Output: 15 × 10^6 1/mole

---

test system: plasma coagulation (thromboplastin); experiment: Plasma coagulation assay: prothrombin time; format: biochemical
Square brackets hold non-standard residues; d marks the D form. Peptide text beside a SMILES is read from it. * marks the point of attachment. dNMePhg = CN[C@@H](C(=O)O)c1ccccc1; dHpg = N[C@@H](C(=O)O)c1ccc(O)cc1; Boc = CC(C)(C)OC(=O)*
assay.readout: Prothrombin Time: concentration required to prolong coagulation by 2fold (ng/mL)
The reply should be a number in ng/mL, with the unit left off.

Answered cases to consult:
COc1ccc([C@@H](NC(C)=O)C(=O)N2CCC[C@H]2C(=O)N[C@H](C=O)CCCNC(=N)N)cc1 ... 900
CN[C@@H](C(=O)N1CCC[C@H]1C(=O)N[C@H](C=O)CCCNC(=N)N)c1ccccc1 [N^α -Methyl-D-phenylglycyl (sulfate)] (H-[dNMePhg]-Pro-Arg-aldehyde) ... 899
CC(=O)O.CC(=O)O.CC(C)(C)OC(=O)N[C@@H](C(=O)N1CCC[C@H]1C(=O)N[C@H](C=O)CCCNC(=N)N)c1ccc(O)cc1 [Boc-D-(4-hydroxy)phenylglycyl] (Boc-[dHpg]-Pro-Arg-aldehyde) ... 1636

Now let's try a different one.
Task: Give reported Prothrombin Time: concentration required to prolong coagulation by 2fold for `CC(=O)O.CC(=O)O.CC(C)(C)OC(=O)N[C@@H](C(=O)N1CCC[C@H]1C(=O)N[C@H](C=O)CCCNC(=N)N)c1ccc2ccccc2c1` (plasma coagulation (thromboplastin))
Output: 1200

---

Test system: plasma coagulation (thromboplastin)
Assay: Plasma coagulation assay: prothrombin time
Format: biochemical
Description: The numerical values in the table are the concentrations of the test compounds (ng/ml) required to prolong coagulation by 2-fold in the three tests. The thrombin time evaluation was carried out in plasma and separately determined in a buffer system at pH 7.5. The data presented in Table 2 were obtained using a CoaScreener instrument from Tecan, Inc. in the assay protocols listed below. 50 μl thromboplastin (Dade)
Counter-ions that a name gives are not always drawn. Square brackets hold non-standard residues; d marks the D form. Peptide text beside a SMILES is read from it. * marks the point of attachment. dChg = N[C@@H](C(=O)O)C1CCCCC1; dPhg = N[C@@H](C(=O)O)c1ccccc1; Boc = CC(C)(C)OC(=O)*
Prothrombin Time: concentration required to prolong coagulation by 2fold: recorded values
The reply should be a number in ng/mL, with the unit left off.

CC(=O)O.CC(=O)O.CC(C)(C)OC(=O)N[C@@H](C(=O)N1CCC[C@H]1C(=O)N[C@H](C=O)CCCNC(=N)N)c1cccc2ccccc12 ... 1225
CC(C)(C)OC(=O)NC(C(=O)N1CCC[C@H]1C(=O)N[C@H](C=O)CCCNC(=N)N)c1cccc2ccccc12 (mixture of isomers) ... 1136
CC(C)(C)OC(=O)N[C@@H](C(=O)N1CCC[C@H]1C(=O)N[C@H](C=O)CCCNC(=N)N)C1CCCCC1 [Boc-D-cyclohexylglycyl] (Boc-[dChg]-Pro-Arg-aldehyde) ... 522
CC(C)(C)OC(=O)N[C@@H](C(=O)N1CCC[C@H]1C(=O)N[C@H](C=O)CCCNC(=N)N)c1ccccc1 [Boc-D-phenylglycyl, diacetate salt] (Boc-[dPhg]-Pro-Arg-aldehyde) ... 667

Now let's try a different one.
Task: Give reported Prothrombin Time: concentration required to prolong coagulation by 2fold for `COc1ccc2cc([C@@H](NC(=O)OC(C)(C)C)C(=O)N3CCC[C@H]3C(=O)N[C@H](C=O)CCCNC(=N)N)ccc2c1` (plasma coagulation (thromboplastin))
Output: 35489
